The values you see were collected from patent US20210156867A1.

# assay target: mouse recombinant His-calmodulin, calcium-bound (mouse), P0DP26
outcome measure: Kd (nM)

1) INLKALAALAKKIL (modifications not checked) [Mastoparan, P01514 1-14] :: 1.2
